Values were extracted from ChEMBL document CHEMBL1157039.

# Tested on: Candida albicans
# TEST_SUMMARY: Antifungal activity against Candida albicans ATCC 24433 after 48 to 72 hrs by microdilution method
# Type: functional
MEASURE: MIC (µg/mL)
Number only, in µg/mL; omit the unit.

MOLECULE: CCCCCCC(O)C/C=C\CCCCCCCC(=O)O[C@H]1CC[C@@]2(C)C(=CC[C@H]3[C@@H]4CC[C@H]([C@H](C)CCCC(C)C)[C@@]4(C)CC[C@@H]32)C1 (stereo partly specified)
MIC / µg/mL: 1
//
MOLECULE: C=CCCCCCCCCC(=O)O[C@H]1CC[C@]2(C)[C@H]3CC[C@]4(C)[C@@H]([C@H](C)CCCC(C)C)CC[C@H]4[C@@H]3C[C@@H](Br)[C@@]2(Br)C1
MIC / µg/mL: 16
//
MOLECULE: CCCCC/C=C\CCC(O)CCCCCCCC(=O)O[C@H]1CC[C@@]2(C)C(=CC[C@H]3[C@@H]4CC[C@H]([C@H](C)CCCC(C)C)[C@@]4(C)CC[C@@H]32)C1 (stereo partly specified)
MIC / µg/mL: 1
//
MOLECULE: OC(Cn1cncn1)(Cn1cncn1)c1ccc(F)cc1F
MIC / µg/mL: 1
//
MOLECULE: CC(C)CCC[C@@H](C)[C@H]1CC[C@H]2[C@@H]3CC=C4C[C@@H](OC(=O)CCCCCCCCC(Br)CBr)CC[C@]4(C)[C@H]3CC[C@]12C (stereo partly specified)
MIC / µg/mL: 1

// next entry
Write down measured MIC (Candida albicans) for this molecule. CCCCCCCC/C=C\CCCCCCCC(=O)O[C@H]1CC[C@@]2(C)C(=CC[C@H]3[C@@H]4CC[C@H]([C@H](C)CCCC(C)C)[C@@]4(C)CC[C@@H]32)C1 [CHOLESTERYL OLEATE]
2
